- Test system: TRX-9S-E2 (synthetic construct)
- method: MST
- runParameters: HRP: 50 mM Tris pH 8, 150 mM NaCl, 1 mM bME, 50 ug/ml BSA, 3 ug/ml yeast RNA, 0.5% heparin, 2 nM RNA; ITC (25 C) and FP: Tris pH 8, 200 mM KCl, 5% glycerol …
pKd: −log10 of the molar value.

>  <sequenceRecord>
AUUACACGUGA [Cy5-rpoA]

>  <pKd>
8.17

$$$$
